Tested on: bacteria gathered from circular water system
experimental details: Degree of propagation on slime test boards (Example 27)
Assay type: cell-based
reported conditions: shaking culture for 2 days
endpoint label: Degree of propagation

compound | endpoint label | measured result
CCC(=O)Oc1ccccc1C(=O)NC=C(Cl)Cl | Degree of propagation | -
O=C(NC=C(Cl)Cl)c1cc(Cl)ccc1O [Compound No. 21] | Degree of propagation | -
CC(=O)Oc1ccc(Cl)cc1C(=O)NC=C(Cl)Cl | Degree of propagation | -

----------
System: seedling blight of rice plant (pathogen Fusarium sp. and Rhizoctonia sp.)
experimental details: Exterminating test on seedling blight of rice plant (Experimental Example 1)
Type: in vivo
reported conditions: soil, 408 h, 0.25g/box a.i., 5% dust mixed with soil; read-out: Percentage of healthy seedlings
endpoint label: Percentage of healthy seedlings at 0.25 g/box (%)
Reply numerically in %, unit not repeated.

input smiles | measured result
CCOC(=O)Oc1ccccc1C(=O)NC=C(Cl)Cl | 68.3
O=C(NC=C(Cl)Cl)c1ccccc1OC(=O)C(Cl)Cl | 70.8
O=C(CCl)Oc1ccccc1C(=O)NC=C(Cl)Cl | 62
CCC(=O)Oc1ccccc1C(=O)NC=C(Cl)Cl | 69.8
CC(C)COC(=O)Oc1ccccc1C(=O)NC=C(Cl)Cl | 72.1

Quick check: Percentage of healthy seedlings at 0.25 g/box of CCCCCCCCCCCC(=O)Oc1ccccc1C(=O)NC=C(Cl)Cl ? 65

Requested field: Percentage of healthy seedlings at 0.25 g/box. Item: CC(=O)Oc1ccc(Cl)cc1C(=O)NC=C(Cl)Cl 70.2

----------
Test system: seedling blight of rice plant (pathogen Fusarium sp. and Rhizoctonia sp.)
experimental details: Exterminating test on seedling blight of rice plant (Experimental Example 1)
Assay type: in vivo
reported conditions: soil, 408 h, 0.25g/box a.i., 5% dust mixed with soil; read-out: Percentage of healthy seedlings
Note to self: values exactly at 70% are 1 (yes). So Percentage of healthy seedlings at 0.25 g/box at or above 70% is 1 (yes), below is 0 (no).

Solved entries (count: 2):
input smiles | answer label
CC(=O)Oc1ccccc1C(=O)NC=C(Cl)Cl | 1 (yes)
O=C(NC=C(Cl)Cl)c1cc(Br)ccc1O | 0 (no)

Switching to the query record.
Quick check, Percentage of healthy seedlings at 0.25 g/box >= 70%? Cc1cccc(C(=O)NC=C(Cl)Cl)c1O 1 (yes)

----------
# pest or weed control at 1000 ppm annotations
Test system: Rhizoctonia solani (damping-off of cucumber)
experimental details: Exterminating test on damping-off of cucumber (Experimental Example 3)
Assay type: in vivo
reported conditions: Rhizoctonia solani, soil, 240 h, 1,000 ppm, soil drench 50 ml per pot, 10 days; read-out: Percentage of healthy seedlings
Numbers only; they are read as %.

Record lookup: for Rhizoctonia solani (damping-off of cucumber), what pest or weed control at 1000 ppm belongs to O=C(CCl)Oc1ccccc1C(=O)NC=C(Cl)Cl ? 100

# returns recorded pest or weed control at 1000 ppm (system: Rhizoctonia solani (damping-off of cucumber)) for CC(C)C(=O)Oc1ccccc1C(=O)NC=C(Cl)Cl 100

----------
Tested on: seedling blight of rice plant (pathogen Fusarium sp. and Rhizoctonia sp.)
experimental details: Exterminating test on seedling blight of rice plant (Experimental Example 1)
Type: in vivo
reported conditions: soil, 408 h, 0.25g/box a.i., 5% dust mixed with soil; read-out: Percentage of healthy seedlings
Mark YES for reported Percentage of healthy seedlings at 0.25 g/box of 70% or greater; mark NO for anything smaller.

Illustrative cases are given below, each with its answer.
compound | experimental target | answer label
O=C(NC=C(Cl)Cl)c1ccccc1O [Compound No. 1, N-(β,β-dichlorovinyl) salicylamide] | seedling blight of rice plant (pathogen Fusarium sp. and Rhizoctonia sp.) | YES
O=C(NC=C(Cl)Cl)c1cc(Cl)ccc1O | seedling blight of rice plant (pathogen Fusarium sp. and Rhizoctonia sp.) | YES

Confirm if Percentage of healthy seedlings at 0.25 g/box reported for the compound Cc1ccc(C(=O)NC=C(Cl)Cl)c(O)c1 is 70% or above. NO

----------
Test system: Rhizoctonia solani (damping-off of cucumber)
experimental details: Exterminating test on damping-off of cucumber (Experimental Example 3)
Type: in vivo
reported conditions: Rhizoctonia solani, soil, 240 h, 1,000 ppm, soil drench 50 ml per pot, 10 days; read-out: Percentage of healthy seedlings
endpoint label: pest or weed control at 1000 ppm (%)
Please respond with the number in % and leave the unit unwritten.

Some entries whose results are on file:
compound | experimental target | endpoint label | measured result
O=C(NC=C(Cl)Cl)c1ccccc1O [Compound No. 1, N-(β,β-dichlorovinyl) salicylamide] | Rhizoctonia solani (damping-off of cucumber) | pest or weed control at 1000 ppm | 100
CC(=O)Oc1c(Cl)cc(Cl)cc1C(=O)NC=C(Cl)Cl | Rhizoctonia solani (damping-off of cucumber) | pest or weed control at 1000 ppm | 75
O=C(NC=C(Cl)Cl)c1cc(Br)ccc1O | Rhizoctonia solani (damping-off of cucumber) | pest or weed control at 1000 ppm | 70

# query: pest or weed control at 1000 ppm of entry CCOC(=O)Oc1ccccc1C(=O)NC=C(Cl)Cl 85

Need pest or weed control at 1000 ppm of CC(=O)Oc1ccc(Br)cc1C(=O)NC=C(Cl)Cl , thanks. 75

So what's the measured pest or weed control at 1000 ppm for this one? CC(C)COC(=O)Oc1ccccc1C(=O)NC=C(Cl)Cl 100

Reported pest or weed control at 1000 ppm, compound CCCC(=O)Oc1ccccc1C(=O)NC=C(Cl)Cl : ____ 100

What value of pest or weed control at 1000 ppm has been reported for the following compound? Cc1ccc(C(=O)NC=C(Cl)Cl)c(O)c1 80

----------
System: Penicillium Citrinum
experimental details: Region of growth-inhibition around treated cotton cloth (Example 26)
Format: cell-based
reported conditions: emulsifiable concentrate diluted 100 times
The compounds listed here are annotated with their width of the region of growth-inhibition.
Value and unit, in that order.

Reference set, count: 3
input smiles | measured result
CC(=O)Oc1ccc(Cl)cc1C(=O)NC=C(Cl)Cl | 10 mm
O=C(NC=C(Cl)Cl)c1cc(Br)ccc1[O-].O=C(NC=C(Cl)Cl)c1cc(Br)ccc1[O-].[Zn+2] | 5 mm
O=C(NC=C(Cl)Cl)c1cc(Cl)ccc1O | 5 mm

Which width of the region of growth-inhibition value is on record for O=C(CCl)Oc1ccccc1C(=O)NC=C(Cl)Cl ? 7 mm

Can you share its width of the region of growth-inhibition? I mean this compound: CCC(=O)Oc1ccccc1C(=O)NC=C(Cl)Cl 6 mm

What measured width of the region of growth-inhibition goes with CC(=O)Oc1ccccc1C(=O)NC=C(Cl)Cl ? 7 mm

I have this compound here, CCOC(=O)Oc1ccccc1C(=O)NC=C(Cl)Cl , and I need its recorded width of the region of growth-inhibition. 6 mm

----------
Here the recorded pest or weed control at 1000 ppm is given for each entry.
Test system: Xanthomonas citri (citrus canker)
experimental details: Exterminating test on citrus canker (Experimental Example 6)
Format: in vivo
reported conditions: Xanthomonas citri, 336 h, read-out: Effect Index, 1,000 ppm, 2 weeks after inoculation
Provide only the numeric value, understood in %.

The examples below pair each entry with its known result.
input smiles | experimental target | unit label | pest or weed control at 1000 ppm
O=C(NC=C(Cl)Cl)c1ccccc1OC(=O)C(Cl)Cl | Xanthomonas citri (citrus canker) | % | 73.2
CCOC(=O)Oc1ccccc1C(=O)NC=C(Cl)Cl | Xanthomonas citri (citrus canker) | % | 68.3
Cc1ccc(C(=O)NC=C(Cl)Cl)c(O)c1 | Xanthomonas citri (citrus canker) | % | 98.2
O=C(CCl)Oc1ccccc1C(=O)NC=C(Cl)Cl | Xanthomonas citri (citrus canker) | % | 67.3

Shift focus to the following entry.
Request: pest or weed control at 1000 ppm, test system Xanthomonas citri (citrus canker), entry CC(=O)Oc1ccccc1C(=O)NC=C(Cl)Cl 96.1

----------
System: cucumber seedlings (variety: Sagamihanjiro)
experimental details: Phytotoxicity on cucumber seedlings (Experimental Example 2)
Type: in vivo
reported conditions: 500 ppm
endpoint label: Phytotoxicity

molecule | experimental target | Phytotoxicity
O=C(NC=C(Cl)Cl)c1cc(Br)ccc1[O-].O=C(NC=C(Cl)Cl)c1cc(Br)ccc1[O-].[Zn+2] | cucumber seedlings (variety: Sagamihanjiro) | Nil
CC(=O)Oc1ccccc1C(=O)NC=C(Cl)Cl | cucumber seedlings (variety: Sagamihanjiro) | Nil
O=C(NC=C(Cl)Cl)c1cc(Cl)ccc1O | cucumber seedlings (variety: Sagamihanjiro) | Nil
O=C(NC=C(Cl)Cl)c1ccccc1OC(=O)C(Cl)Cl | cucumber seedlings (variety: Sagamihanjiro) | Nil
Cc1ccc(C(=O)NC=C(Cl)Cl)c(O)c1 | cucumber seedlings (variety: Sagamihanjiro) | Nil

Using the record for O=C(NC=C(Cl)Cl)c1ccccc1O [Compound No. 1, N-(β,β-dichlorovinyl) salicylamide] , report its Phytotoxicity. Nil

# query: Phytotoxicity of entry COc1ccccc1C(=O)NC=C(Cl)Cl Nil

----------
Entries annotated with measured Percentage of healthy seedlings at 0.25 g/box
Test system: seedling blight of rice plant (pathogen Fusarium sp. and Rhizoctonia sp.)
experimental details: Exterminating test on seedling blight of rice plant (Experimental Example 1)
Type: in vivo
reported conditions: soil, 408 h, 0.25g/box a.i., 5% dust mixed with soil; read-out: Percentage of healthy seedlings
Procedure: Exterminating test on seedling blight of rice plant Nursery boxes (60 × 30 × 3 cm) were filled with soil which were contaminated with pathogen (Fusarium sp. and Rhizoctonia sp.) The dust in which the present compound was contained in a ratio of 5% by weight was added in the box in a ratio of 5 grams per box and mixed well with soil. […] The percentage of healthy seedlings was calculated as follows: […]
Quick note: give the figure in %, leave out the unit.

molecule | unit label | measured result
CC(=O)Oc1ccc(Br)cc1C(=O)NC=C(Cl)Cl [compound 8] | % | 71.3
CC(=O)Oc1c(Cl)cc(Cl)cc1C(=O)NC=C(Cl)Cl [compound 32] | % | 69.8
O=C(NC=C(Cl)Cl)c1cccc([N+](=O)[O-])c1O [compound 31] | % | 70.2
CC(=O)Oc1c(C(=O)NC=C(Cl)Cl)cccc1[N+](=O)[O-] [compound 35] | % | 71.2
CCCC(=O)Oc1ccccc1C(=O)NC=C(Cl)Cl [compound 10] | % | 72.1
O=C(NC=C(Cl)Cl)c1cc(Cl)cc(Cl)c1O [compound 33] | % | 70.4

# Percentage of healthy seedlings at 0.25 g/box lookup, item COc1ccccc1C(=O)NC=C(Cl)Cl [compound 15] 70.2
